- measured-target: JAK2 JH1 JH2 (human) (UniProt O60674)
- Sequence (O60674 whole entry, looked up): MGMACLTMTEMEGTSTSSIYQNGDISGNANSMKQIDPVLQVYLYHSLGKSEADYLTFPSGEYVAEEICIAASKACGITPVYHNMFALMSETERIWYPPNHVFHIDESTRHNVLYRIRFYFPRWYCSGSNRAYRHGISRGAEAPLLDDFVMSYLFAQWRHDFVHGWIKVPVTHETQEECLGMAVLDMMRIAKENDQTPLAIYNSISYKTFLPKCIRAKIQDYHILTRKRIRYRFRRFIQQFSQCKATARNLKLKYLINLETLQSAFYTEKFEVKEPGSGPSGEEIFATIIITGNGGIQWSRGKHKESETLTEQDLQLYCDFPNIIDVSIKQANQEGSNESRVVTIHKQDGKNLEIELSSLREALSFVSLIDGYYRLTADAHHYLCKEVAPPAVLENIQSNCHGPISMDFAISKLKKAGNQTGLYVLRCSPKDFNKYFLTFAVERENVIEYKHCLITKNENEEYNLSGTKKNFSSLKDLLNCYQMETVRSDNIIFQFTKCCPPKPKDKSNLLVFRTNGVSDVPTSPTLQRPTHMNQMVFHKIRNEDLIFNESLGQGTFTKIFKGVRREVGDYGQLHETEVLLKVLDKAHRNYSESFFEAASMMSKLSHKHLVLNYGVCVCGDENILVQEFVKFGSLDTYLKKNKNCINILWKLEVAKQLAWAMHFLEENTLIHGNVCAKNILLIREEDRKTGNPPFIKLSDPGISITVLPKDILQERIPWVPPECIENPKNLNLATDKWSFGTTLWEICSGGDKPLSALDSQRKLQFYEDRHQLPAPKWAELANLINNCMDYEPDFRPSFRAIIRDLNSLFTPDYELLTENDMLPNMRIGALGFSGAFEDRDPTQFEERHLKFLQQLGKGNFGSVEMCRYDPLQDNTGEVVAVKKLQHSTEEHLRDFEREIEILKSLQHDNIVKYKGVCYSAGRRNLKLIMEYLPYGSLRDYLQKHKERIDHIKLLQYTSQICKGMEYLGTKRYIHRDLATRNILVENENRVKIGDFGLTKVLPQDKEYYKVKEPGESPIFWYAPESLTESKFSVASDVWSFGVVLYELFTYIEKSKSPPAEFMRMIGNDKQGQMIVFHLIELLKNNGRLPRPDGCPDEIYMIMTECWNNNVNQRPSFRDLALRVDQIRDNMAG
- procedure-summary: radiometric filter-binding kinase assay, Kinase HotSpot
- condition-set: compound 0.5 µM; ATP 10 µM
assay-endpoint: residual activity (%)
Write the value in % as a bare number.

Answered cases to consult:
compound	residual activity [%]
CC(C)[C@H](CO)Nc1nc(Nc2cccc(Cl)c2)c2ncn(C(C)C)c2n1	97.7
NC(=O)c1ccc(N(C(N)=O)c2c(F)cccc2F)nc1-c1ccc(F)cc1F	107
O=C1Cc2c([nH]c3ccc([N+](=O)[O-])cc23)-c2ccccc2N1	103
Cc1ccc(NC(=O)c2ccc(CN3CCN(C)CC3)cc2)cc1Nc1nc(-c2cccnc2)cs1	96.3

Input line: Give residual activity for "CCCNC(=O)Nc1ccc(Oc2ncnc3cc(OC)c(OC)cc23)cc1Cl"
Output line: 96.9

Input line: Give residual activity for CSc1nc(-c2ccc(F)cc2)c(-c2ccnc(NC(C)c3ccccc3)c2)[nH]1 (stereo not drawn)
Output line: 102

Input line: Give residual activity for O=C(NC(NC(=S)Nc1ccc(F)c([N+](=O)[O-])c1)C(Cl)(Cl)Cl)C(c1ccccc1)c1ccccc1 (stereo not drawn)
Output line: 99.9

Input line: Give residual activity for "Nc1nc(Nc2ccc(S(N)(=O)=O)cc2)nn1C(=O)c1c(F)cccc1F"
Output line: 19.2
